# METHOD_DESCRIPTION: label from the status in PepcDB records
RESULT_TYPE: protein production

Fill in protein production for record MDGEIDADELRSKLDEETVRVVDIRSPGAFERGHIPESENVPFPSLVDEVERFEGDDEVVTVCPKGKSSVQAARLIASYEGFDGDVVSFAPGLNGWDGPLERAEDEETPADTAAADRDSDEGPAAPF failed

Annotate the sequence MDGVLKGFFVVSIVLLIGYILGKTKALGPEGSKVLSTLTFMVGLPCLMFSAIASRHINDVLSATGLISVVTAVAVMLVFTVAGTIARWGVRRTTIGALSVGIVNSTNLGVPLSLYILGSATYVTPIMLFQLAIVTPIALTILDLTDPAGKKVSVWRTLSIPFRNPVTVAAILGVLVSALGIQLPSLVLDPLALVAQLAVPLMLIIFGMSLHGLSVRPGIDDRVPTTIAVILKSAIQPVLAWVLAAFVFQLDPFSTFVVTACAILPTGQNVVLYSVRYGVGQGIAQSTAVFTSILAVPLLLGAAWLFG with its measured protein production. failed

###

# METHOD_DESCRIPTION: label from the status in PepcDB records
RESULT_TYPE: protein production

Known protein production results, listed for orientation:
Please report the measured protein production for MSKAVLTTKVTPGYKDLPEVRYHFPRTYLNQVRQAVGDYILYYEPRRTTVELSSFGGRQSYFGVARVVDLVEDKDQADHYYALVDDYLDFDRPVPFVEGGHYYESALRKSDGSTNKGAFGRAVRLIPDAEFDQIWKAGFAPILGEETSRHQPRQFEISEPTVPFERPIIEMTISRPFRERSFMYNVRAAYENRCAMTGLRLINGGGRPEVQAAHIQPVAEKGPDSVRNGLALSGTVHWMFDRGLISIGDDYKILTAENHVPDDALRLLNHSRTINLPNDTAFYPNALFLKFHRDKIFKG failed

Answer with the recorded protein production of MEAEEIIGLLKKGDLEKAKDALSKEIDNLSDEELKEILEVAESVAKEKEDIELLKLVVYYYAEFFGIDKLEEFEGIAKEKGYEGLMHLADLYSLLGYPEKALDIYRELLKTDLIKEKEHIGEIYYGIATIHDELQEYDKALEAINEAVKAFKESNNVEKLHQAEVYRAYITFENGDRDKAKEILAGLLPHVTNREIKAQIHLVFKEIFEDEENYEAAIQESLYSLIEGIDTEVFDLAFDGLIDLIWELILEDKFEEIYKSMPMFKVAIPSLKDFFEGVRRIAMYREGKIGREEVSEILMKVKDERLVSILEFLGEAEV only. failed

Specify protein production for MTAARSAPSPAGAPRPGLRERKKTRTREAIRAATYGLIRQQGYEATTVEQIAERAEVSPSTVLRYFPTREDIVLTDEYDPVMAAELAARPAGEPWSDSLRHVLRKALGLGAGEEAELIRLRTRLLAEVPAVRARMLENMSDTGRMLARAIADRTGLDPDGLEVRIVSMSLVGGLMEVSRYWAEHDHEESLAELVDRALDALENGLPALRESDRESDREGDRGGHREDRREGPRKD and stop. not failed

Specify measured protein production for MATQAAGIFSPAITTTTSAVKKLHLFSSSHRPKSLSFTKTAIRAEKTESSSAAPAVKEAPVGFTPPQLDPNTPSPIFAGSTGGLLRKAQVEEFYVITWNSPKEQIFEMPTGGAAIMREGPNLLKLARKEQCLALGTRLRSKYKITYQFYRVFPNGEVQYLHPKDGVYPEKANPGREGVGLNMRSIGKNVSPIEVKFTGKQSYDL . failed

Identify measured protein production corresponding to MAKTSRPSKAKQQALVHQLIGKIDAQPEDYHAYYELVVLLTAGQDFEQAEALAMKALGKFDHQQPAADYLRYALGNVYYQAQTYDKALPYYQQITDDQLKQDAYLMSAQALMAQHDYQHALVWAITAQEARPQQLDANLLVADILLALGNNQQASDYYQRAYKIDSQSGRAAFNLGLTAMVLGKPYATWFERAQKLDSQYFKSHQQQLTDIEKMLAAQADNQNH failed

For the next question, use this sequence.
State its protein production for this sequence: MILNVAGPLGNPAPMEKFGKILAIGAYVGIAEVYPIAKAWQEIGNDVTTLHVTFEPMVILKDYFEKAVSRHIVEPVKIDQEKSFQENTKNVTKALTAKVKELLDNENWDLVFMVGPPGDQKAVFEVVKKYGIPMKVDLHPIMLEHHHHHH not failed

###

# METHOD_DESCRIPTION: label from the status in PepcDB records
RESULT_TYPE: protein production

Retrieve protein production measured for MSIDVHPNNYAYQTNEPYKNFEAEDKLIGHLQDFVDGHQEDVKRIGSKMSEMKAKFEEKFDDLTNRLENMEGALVEINNALLNHQDDIQDQYTRIVNVGLVVDTVESHLDWKIEELEKKLNNSNEFSE and print it. not failed

State its protein production for this sequence: MKIAALYDIHGNYPALKEVLKQVKKLSPDLVVLGGDLIAGPMPLETLSLLKHVSTTFKTVGIMGNNDQDIVDIYAKKRVGLSRKATEQLTWIANQLSYKQVSFLRNLLPSISIGNYFFCHAVKNDNTTVFSPQQNKAYIETLFKGVQESYIICGHTHIQFELSLPNKKIINAGSIGMPFSNQFGAQWLWLDDNRIEYKRTIFNQQAAIQLISQTEYPFKNEFIANNLRSTISLSQGYSILNTLIRAQNAQHDLSLEHHHHHH not failed

###

# METHOD_DESCRIPTION: label from the status in PepcDB records
RESULT_TYPE: protein production

Study these solved cases before continuing.
Specify reported protein production for the sequence shown: MNPPEKLLTAENPALRQRAKAMRQEMSEAEAKLWQHLRAGRLNGYKFRRQQPMGNYIVDFMCVTPKLIVEADGGQHAEQAVYDHARTVYLNSLGFTVLRFWNHEILQQTNDVLAEILRVLQELEKQPAR not failed

Fill in reported protein production for this entry: MDMLHAMRTFTRVVECGSFAAAANALDISAAQVSRIVAELENQLQTRLLHRTTRRLRMSEAGERFLERARQIMLLTEEAVGEARGAHLTPRGHLRLHCPHGMGLLLMPLVAGYNMLYPEVVIELTLSQRNPDPLAEGHDVVITVDGALPDSQLIAVPLGNIFSIPCAAPGYLDTHGVPERPEDLHGHRCLRMAYPMYEGDWVFPQGVDQCVIAPNDSFSTNVADAMLVASELGMGIGLLPFYTASEAIGQGRLCRLLAPYRLRESALYAMYPSRHYLDAKVRTWIDYLKEQLPALFEGHARVVDDARYWR failed

Identify measured protein production associated with MALGFGMKMELQQFLDALASSPEKIEFETTMAVIEDNYDFTPAAFTNGNTQNDANENNGSCKIFAFGLLNALDKEATLACFGRFYREDVLLHPENNDHQNIRNFMVTGWEGIQFETSALTAK not failed

State, in one line, measured protein production of MWARTAAWVFGLPETLREICYRRDNVKPVDELQKTIGHRFGDMELLLTAMTHSSWANEQAVPVEHNERLEFLGDAVLELCVSEELFRRFPSAREGDLTRMRSRLVSKPSLEGVARELRLDMSLRLGKGEESQGGRERGSLLSDALEAMLGAVFLDAGYIAAKGVVMRILGPHFPEALVPVRTKDYKSQLQELTQKLFRDRPVYTLLGSSGPEHDKQFDVRVVLPDGTVFEATGPSMKRAEQMAAARAVATLDK failed

Provide measured protein production value, entry: MTLYKQLVAGMIAVFILLLISVFTIEFNTTRNSLEQQQRSEVNNTINTVGLALAPYLEKKDTIAVESVINALFDGSSYSIVRLIFLDDGTEILRSYPIQPNNVPAWFTQLNLFEPIHDRRVVTSGWMQLAEVEIVSHPGAAYAQLWKALIRLSIAFLAILVIGMFAVAFILKRSLRPLQLIVNKMEQVANNQFGEPLPRPNTRDLIYVVDGINKMSEQVEKAFKAQAKEAQQLRERAYLDPVSHLGNRAYYMSQLSGWLSESGIGGVAILQAEFIKELYEEKGYEAGDGMVRELADRLKNSITIKDISIARISTYEFGIIMPNMDETELKIVAESIITCVDDINPDPTGMAKANLSLGVVSNKRQSSTTTLLSLLDNALLKRNPILS failed

Provide the reported protein production of each entry below, same order.
1. MAENLRDSVVHRDIALLSFCAPVMLERLPSSFVKHIELWLSAAGLGIIFGVGYASGPSGPAFWRLIAVIAVGIGVVHGFIFWAVRRRQRQVRRQSIREIQQMLSDVLKNKLAAINMYLPEDADEEMVKQELDGVRASIEDIADEIENISEESIEGWKEHYSGAVERTTNL
2. DRNSYSKTDYDATFMRMKEDHMKNGQLKPGYNLQIATNSQFVLSYNVYQNPTDTRTMIPFLNSIQETYGHLPEYIVADAGYGSESNYKAIIDDFNRTPLITYGMFIKDKTKKYKSDIFNTQNWNYDEIN
3. MEGVELELERRSKFLNSLIQKKKAKEQQDQKDEFNVRVRASDMPLPQQNRAFSLSREILNATPGKADNKRLAHALKKDFDSAYGPAWHCIVGTSFGSYVTHSTGGFLYFQIDKVYVLLFKTAVEPLDQK
4. MQVIAFIAPLIDKGMDPLTGVPIRQEVPRLMERTFQENQAETYVLFLINLDRFKLVNDSLGEGYGDQVLQTLVRRLLWQLPNQQWIARVSGDEFIACAAIKGELPKKETLATYISSIIQQPFQVDEVQFTMTASIGAAVYPMDGKSVEMIWNSLERALRHAKARGGNCVSWFCQELKDEWIHPFRLENDLRRAVENQELEHHHHHH
5. MVWFLILQLIVLLILVAFSATLMAKGTRELERSFGKGIAGGLILGFINALPETIIVIQAVLNGFYDIALGSALGGNILLLTLGIGLISIFYYLKYKSNIITLDSDINIEYSSFLLAVIILGIAIVYGKLNYYIGLFLLSPYIYYIYRRYKNYRGILKNEKNKGNAIKGLAYVMIGGLPLIFISKYLISTISSIASVFNVQPLILAILITPIAAELEENLTAIKLISDSPSSATTALMNFIGSKLENMTLLLSIIGISQTVSLRPSLLYLLLILATSLLALGIIKDRNIKVKEGLSLFGIYAILIAILLRFSA
6. MIGFLILLFIFVAGFFIMQMLIYRFAKKNIHKYTKIKWFHMWLHMNMKKGPRLDFFDFVVTVLVCIVWKIWLLPFI

failed
failed
failed
failed
failed
failed

# return protein production for each item in the list
1. MEIRTLALKTPEGQPFTMWIYQHDQFTLFPDDRLWPLALIFPGGGFAGYSEREVEAVALKFIAKGYQAAVVKYNLTSDGPFYPTAATIGLAALSYVKRHAQELNADFDHVVVSGFSAGGHLVAVMTALGAQSEFLNNHGFEETKLVPFAQILSYPVIDLTMGFPTSQHEMMAVTTDESYWHAQELVTSQTPPTFIWATRTDELVPVVNSLVYLAALGEHNVPFESHIYAAGVHGLAFGDLADSRYHHPEDVVPRVQNWFPMALGWLRTLYASKNSTEILEHHHHHH
2. MIILPKTLYEEMLNHCLNSLPIEACGLLGGVIEDEKRIVKKVYLLTNVDQSPEHFSMDPLEQFAAVKDMRKNGWVLLGNFHSHPTTPARPSEEDKRLAFDKSLSYLILSLMDEKNPVLKSFRIYESYVEEEEIQIILEHHHHHH
3. EIAVPTLFVHGYSGTANSFKGMINRLADDGIVTESLVMTVAADGSVSTTGSYDKFSHNPTIQVIFEDNKSSMVNQTQWIQNVMKELKNNYHIEKVDAVGHSMGGVSLTSYIEKVGSDKAYPVLENLVLIGAPLNGLVVGDNGVTAYDLTDEGPKQSSDRYSEFMKNKQKIPTNLQVLNIAGDMLDGTKSDGSVSVASALSGKFIFEGQAKSYEEKIFTGKKAAHSKLHENTDVDAKVANFLWGTEKVD

1. failed
2. failed
3. failed
